- System: 439559-082-T-J2-PDC complex spheroid growth
- Protocol Text: Anticancer human tumor 439559-082-T-J2-PDC patient-derived colon adenocarcinoma cell line growth inhibition [Asc]
- Condition Context: curve of first compound; second compound 0.1 µM
- Text: Multicellular complex tumor spheroid response to apoptosis pathway targeting inhibitors Alrizomadlin, Pelcitoclax, and Dasminapant in combination with a variety of drugs and investigational agents in selected tumor cell lines […] Compounds. […] If the clinical Cmax for an agent had not been determined, the highest concentration tested was 10 microM. […]
# IC50 annotations

For orientation, consider the following solved cases.
COc1c(OCCCN2CCOCC2)ccc2c3n(c(=NC(=O)c4cnc(N)nc4)nc12)CCN3 + Cc1c(S(C)(=O)=O)c(-c2cc(F)cc(N3CCN(c4ccc(NS(=O)(=O)c5ccc(NC(CCN6CCC(C(=O)OCCCP(=O)(O)O)CC6)CSc6ccccc6)c(S(=O)(=O)C(F)(F)F)c5)cc4)CC3)c2)c(-c2ccc(Cl)cc2)n1C(C)C : > 1 µM
CCN1C(C(=O)NC23CCC(C(=O)O)(CC2)CC3)C(c2cccc(Cl)c2F)C2(C(=O)Nc3cc(Cl)ccc32)C12CCCCC2 (configuration not stated) + CNC(C)C(=O)NC1CN(S(=O)(=O)c2cccc(S(=O)(=O)N3CCC4CCC(C(=O)NC(c5ccccc5)c5ccccc5)N4C(=O)C(NC(=O)C(C)NC)C3)c2)CCC2CCC(C(=O)NC(c3ccccc3)c3ccccc3)N2C1=O : > 3 µM
Cc1nc(N2CCC3(CC2)COC(C)C3N)c(CO)nc1Sc1ccnc(N)c1Cl (configuration not stated) + CNC(C)C(=O)NC1CN(S(=O)(=O)c2cccc(S(=O)(=O)N3CCC4CCC(C(=O)NC(c5ccccc5)c5ccccc5)N4C(=O)C(NC(=O)C(C)NC)C3)c2)CCC2CCC(C(=O)NC(c3ccccc3)c3ccccc3)N2C1=O : > 3 µM
C=C(F)C(=O)N1CCN(c2nc(OCC3CCCN3C)nc3c2CCN(c2cccc4cccc(Cl)c24)C3)CC1CC#N (configuration not stated) + CNC(C)C(=O)NC1CN(S(=O)(=O)c2cccc(S(=O)(=O)N3CCC4CCC(C(=O)NC(c5ccccc5)c5ccccc5)N4C(=O)C(NC(=O)C(C)NC)C3)c2)CCC2CCC(C(=O)NC(c3ccccc3)c3ccccc3)N2C1=O : 4.11 µM
C=CC(=O)N1CCN(c2nc(=O)n(-c3c(C)ccnc3C(C)C)c3nc(-c4c(O)cccc4F)c(F)cc23)C(C)C1 (configuration not stated) + Cc1c(S(C)(=O)=O)c(-c2cc(F)cc(N3CCN(c4ccc(NS(=O)(=O)c5ccc(NC(CCN6CCC(C(=O)OCCCP(=O)(O)O)CC6)CSc6ccccc6)c(S(=O)(=O)C(F)(F)F)c5)cc4)CC3)c2)c(-c2ccc(Cl)cc2)n1C(C)C : > 10 µM
CCN1CCN(Cc2ccc(Nc3ncc(F)c(-c4cc(F)c5nc(C)n(C(C)C)c5c4)n3)nc2)CC1 + CNC(C)C(=O)NC1CN(S(=O)(=O)c2cccc(S(=O)(=O)N3CCC4CCC(C(=O)NC(c5ccccc5)c5ccccc5)N4C(=O)C(NC(=O)C(C)NC)C3)c2)CCC2CCC(C(=O)NC(c3ccccc3)c3ccccc3)N2C1=O : > 1 µM

API: the following record is the query input.
Write IC50 of NC(=O)C(=Cn1cnc(-c2cc(C(F)(F)F)cc(C(F)(F)F)c2)n1)c1cncnc1 + CNC(C)C(=O)NC1CN(S(=O)(=O)c2cccc(S(=O)(=O)N3CCC4CCC(C(=O)NC(c5ccccc5)c5ccccc5)N4C(=O)C(NC(=O)C(C)NC)C3)c2)CCC2CCC(C(=O)NC(c3ccccc3)c3ccccc3)N2C1=O ; system used: 439559-082-T-J2-PDC complex spheroid growth
> 0.3 µM

----------
- Test system: 439559-082-T-J2-PDC complex spheroid growth
- Protocol Text: Anticancer human tumor 439559-082-T-J2-PDC cell line growth inhibition [Asc];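 also: spheroids exposed to agents for 7 days starting day 3 after seeding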;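 as to viability, T/C: percent of DMSO vehicle control viability with 100% = vehicle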
- Condition Context: second compound 1 µM; first compound 0.00949 µM; stronger effect = lower value
Endpoint Label: viability, T/C (%)
# unit: % | format: bare number

NC(=O)C(=Cn1cnc(-c2cc(C(F)(F)F)cc(C(F)(F)F)c2)n1)c1cncnc1 + Cc1c(S(C)(=O)=O)c(-c2cc(F)cc(N3CCN(c4ccc(NS(=O)(=O)c5ccc(NC(CCN6CCC(C(=O)OCCCP(=O)(O)O)CC6)CSc6ccccc6)c(S(=O)(=O)C(F)(F)F)c5)cc4)CC3)c2)c(-c2ccc(Cl)cc2)n1C(C)C : 91.1
Cc1nc(N2CCC3(CC2)COC(C)C3N)c(CO)nc1Sc1ccnc(N)c1Cl (stereo not drawn) + Cc1c(S(C)(=O)=O)c(-c2cc(F)cc(N3CCN(c4ccc(NS(=O)(=O)c5ccc(NC(CCN6CCC(C(=O)OCCCP(=O)(O)O)CC6)CSc6ccccc6)c(S(=O)(=O)C(F)(F)F)c5)cc4)CC3)c2)c(-c2ccc(Cl)cc2)n1C(C)C : 89.5

Continue with the next molecule.
Tell me measured viability, T/C for CCN1C(C(=O)NC23CCC(C(=O)O)(CC2)CC3)C(c2cccc(Cl)c2F)C2(C(=O)Nc3cc(Cl)ccc32)C12CCCCC2 (stereo not drawn) + CNC(C)C(=O)NC1CN(S(=O)(=O)c2cccc(S(=O)(=O)N3CCC4CCC(C(=O)NC(c5ccccc5)c5ccccc5)N4C(=O)C(NC(=O)C(C)NC)C3)c2)CCC2CCC(C(=O)NC(c3ccccc3)c3ccccc3)N2C1=O please.
78.6

----------
- System: 439559-082-T-J2-PDC complex spheroid growth
- Protocol Text: Anticancer human tumor 439559-082-T-J2-PDC cell line growth inhibition [Asc];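 also: spheroids exposed to agents for 7 days starting day 3 after seeding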;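 as to viability, T/C: percent of DMSO vehicle control viability with 100% = vehicle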
- Condition Context: second compound 0.316 µM; first compound 0.00316 µM; stronger effect = lower value
Endpoint Label: viability, T/C (%)
Enter your answer as a number in %; do not include the unit.

Give viability, T/C for the following molecule: CCN1CCN(Cc2ccc(Nc3ncc(F)c(-c4cc(F)c5nc(C)n(C(C)C)c5c4)n3)nc2)CC1 + CNC(C)C(=O)NC1CN(S(=O)(=O)c2cccc(S(=O)(=O)N3CCC4CCC(C(=O)NC(c5ccccc5)c5ccccc5)N4C(=O)C(NC(=O)C(C)NC)C3)c2)CCC2CCC(C(=O)NC(c3ccccc3)c3ccccc3)N2C1=O
91.6

----------
- Tested on: 439559-082-T-J2-PDC complex spheroid growth
- Protocol Text: Anticancer human tumor 439559-082-T-J2-PDC cell line growth inhibition [Asc];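 also: spheroids exposed to agents for 7 days starting day 3 after seeding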;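 as to viability, T/C: percent of DMSO vehicle control viability with 100% = vehicle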
- Condition Context: second compound 3 µM; first compound 0.1 µM; stronger effect = lower value
Endpoint Label: viability, T/C (%)
Please reply with the bare figure in % and do not write the unit itself.

// known answers, use as guide
NC1CCC(NC2CC2c2ccccc2)CC1 (centres undefined) + CCN1C(C(=O)NC23CCC(C(=O)O)(CC2)CC3)C(c2cccc(Cl)c2F)C2(C(=O)Nc3cc(Cl)ccc32)C12CCCCC2 : 107
O=C(c1cc(Cc2n[nH]c(=O)c3ccccc23)ccc1F)N1CCN(C(=O)C2CC2)CC1 + CCN1C(C(=O)NC23CCC(C(=O)O)(CC2)CC3)C(c2cccc(Cl)c2F)C2(C(=O)Nc3cc(Cl)ccc32)C12CCCCC2 : 100
CCN1CCN(Cc2ccc(Nc3ncc(F)c(-c4cc(F)c5nc(C)n(C(C)C)c5c4)n3)nc2)CC1 + CCN1C(C(=O)NC23CCC(C(=O)O)(CC2)CC3)C(c2cccc(Cl)c2F)C2(C(=O)Nc3cc(Cl)ccc32)C12CCCCC2 : 80.7

Kindly review the next molecule as well.
Output viability, T/C of C#Cc1c(F)ccc2cc(O)cc(-c3ncc4c(N5CC6CCC(C5)N6)nc(OCC56CCCN5CC(F)C6)nc4c3F)c12 (centres undefined) + CCN1C(C(=O)NC23CCC(C(=O)O)(CC2)CC3)C(c2cccc(Cl)c2F)C2(C(=O)Nc3cc(Cl)ccc32)C12CCCCC2
74.3

----------
- Test system: 439559-082-T-J2-PDC complex spheroid growth
- Protocol Text: Anticancer human tumor 439559-082-T-J2-PDC cell line growth inhibition [Asc];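 also: spheroids exposed to agents for 7 days starting day 3 after seeding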;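 as to viability, T/C: percent of DMSO vehicle control viability with 100% = vehicle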
- Condition Context: second compound 0.316 µM; first compound 0.00316 µM; stronger effect = lower value
Endpoint Label: viability, T/C (%)
Could you give me the number in %? Just the number is fine.

CNC(C)C(=O)NC1CN(S(=O)(=O)c2cccc(S(=O)(=O)N3CCC4CCC(C(=O)NC(c5ccccc5)c5ccccc5)N4C(=O)C(NC(=O)C(C)NC)C3)c2)CCC2CCC(C(=O)NC(c3ccccc3)c3ccccc3)N2C1=O (stereo not drawn) + Cc1c(S(C)(=O)=O)c(-c2cc(F)cc(N3CCN(c4ccc(NS(=O)(=O)c5ccc(NC(CCN6CCC(C(=O)OCCCP(=O)(O)O)CC6)CSc6ccccc6)c(S(=O)(=O)C(F)(F)F)c5)cc4)CC3)c2)c(-c2ccc(Cl)cc2)n1C(C)C : 97.9
Cn1ncnc1[C@H]1c2n[nH]c(=O)c3cc(F)cc(c23)N[C@@H]1c1ccc(F)cc1 + CNC(C)C(=O)NC1CN(S(=O)(=O)c2cccc(S(=O)(=O)N3CCC4CCC(C(=O)NC(c5ccccc5)c5ccccc5)N4C(=O)C(NC(=O)C(C)NC)C3)c2)CCC2CCC(C(=O)NC(c3ccccc3)c3ccccc3)N2C1=O : 93.1

Please respond with reported viability, T/C (system 439559-082-T-J2-PDC complex spheroid growth) for NC1CCC(NC2CC2c2ccccc2)CC1 (stereo not drawn) + CNC(C)C(=O)NC1CN(S(=O)(=O)c2cccc(S(=O)(=O)N3CCC4CCC(C(=O)NC(c5ccccc5)c5ccccc5)N4C(=O)C(NC(=O)C(C)NC)C3)c2)CCC2CCC(C(=O)NC(c3ccccc3)c3ccccc3)N2C1=O .
93.6
